Target: HLA-A*03:01
Test: IEDB peptide-MHC binding, purified MHC/direct/fluorescence; filed as Kd, often an IC50 or EC50 that approximates it; bounds were set here for any values at or beyond the usual limits of such assays
Conditions: source organism: Giardia lamblia ATCC 50803
reported metric: Kd (µM)
One number for each entry, in µM.

Observe how each entry below is paired with its result.
# sequence entry, target of assay, Kd / µM
rows = [
    ("VYAYPSGEK", "HLA-A*03:01", 3.37),
    ("MIYELCTFR", "HLA-A*03:01", 0.844),
]

We now examine a further sequence.
Challenge: What Kd value was documented for this sequence, "YTDDYPMYK" ?
Response given: 0.359

* * *

Biological target: HLA-B*46:01
Assay: IEDB peptide-MHC binding, purified MHC/direct/fluorescence; filed as Kd, often an IC50 or EC50 that approximates it; bounds were set here for any values at or beyond the usual limits of such assays
Settings: source organism: Camelpox virus M-96
reported metric: Kd

Observe how each entry below is paired with its result.
# sequence entry, result
data = [
    ("YQYIFLSFF", "≥ 20 µM"),
    ("TESDAIRTL", "≥ 20 µM"),
]

Challenge: What Kd value was documented for this sequence, "KVFDKSLLY" ?
Response given: ≥ 20 µM

* * *

Biological target: HLA-C*14:02
Experiment: IEDB peptide-MHC binding, purified MHC/competitive/fluorescence; filed as Kd, often an IC50 or EC50 that approximates it; bounds were set here for any values at or beyond the usual limits of such assays
Conditions: source organism: human gammaherpesvirus 4
reported metric: pKd
Numbers only, as −log10 of the molar value.

Challenge: What pKd value was documented for this sequence, "YTGAMTSKF" ?
Response given: 6.40

* * *

Give Kd for every item shown.
Target: HLA-A*02:01
Assay: IEDB peptide-MHC binding, purified MHC/direct/fluorescence; filed as Kd, often an IC50 or EC50 that approximates it; bounds were set here for any values at or beyond the usual limits of such assays
Settings: source organism: Pseudomonas aeruginosa UCBPP-PA14

# sequence entry, Kd
data = [
    ("ANPGRVKDW", "≥ 20 µM"),
]

Challenge: What Kd value was documented for this sequence, "RDYRTISPR" ?
Response given: ≥ 20 µM

* * *

Biological target: HLA-A*23:01
Assay: IEDB peptide-MHC binding, purified MHC/competitive/fluorescence; filed as Kd, often an IC50 or EC50 that approximates it; bounds were set here for any values at or beyond the usual limits of such assays
Conditions: source organism: Plesiomonas shigelloides
pKd: −log10 of the molar value.
reported metric: pKd

Challenge: Lab note: need pKd for "LLFRMILNY" on HLA-A*23:01, anyone have it?
Response given: ≤ 4.70

* * *

Target: HLA-A*03:01
Test: IEDB peptide-MHC binding, purified MHC/competitive/fluorescence; filed as Kd, often an IC50 or EC50 that approximates it; bounds were set here for any values at or beyond the usual limits of such assays
Conditions: source organism: Salmonella enterica subsp. enterica serovar Typhi
reported metric: pKd
One number for each entry, as −log10 of the molar value.

Observe how each entry below is paired with its result.
# sequence entry, target of assay, pKd
measured = [
    ("MTAAQIRRY", "HLA-A*03:01", 5.46),
    ("MSAIVSCRY", "HLA-A*03:01", 6.05),
]

Challenge: What pKd value was documented for this sequence, "STFDLYVYR" ?
Response given: 5.49

* * *

Biological target: HLA-A*30:01
Experiment: IEDB peptide-MHC binding, purified MHC/competitive/radioactivity; filed as Kd, often an IC50 or EC50 that approximates it; bounds were set here for any values at or beyond the usual limits of such assays
Conditions: source organism: Dengue virus 2 Jamaica/1409/1983
reported metric: Kd (µM)
Answers are plain numbers, in µM.

Challenge: What Kd value was documented for this sequence, "NHALSELPET" ?
Response given: 1.24

* * *

Target: HLA-A*29:02
Assay: IEDB peptide-MHC binding, purified MHC/competitive/radioactivity; filed as Kd, often an IC50 or EC50 that approximates it; bounds were set here for any values at or beyond the usual limits of such assays
Conditions: source organism: Mammarenavirus brazilense
Give Kd for every item shown.
Give bare numbers, in µM.

# sequence entry, numeric value
records = [
    ("SFYCDPKRYF", 0.0294),
    ("GERSRCYSLY", 14.4),
]

We now examine a further sequence.
Challenge: What Kd value was documented for this sequence, "LFWAVKPKI" ?
Response given: 9.35

* * *

Target: HLA-A*11:01
Assay: IEDB peptide-MHC binding, purified MHC/competitive/fluorescence; filed as Kd, often an IC50 or EC50 that approximates it; bounds were set here for any values at or beyond the usual limits of such assays
Conditions: source organism: Yersinia pestis CO92
pKd: −log10 of the molar value.
reported metric: pKd

Challenge: What pKd value was documented for this sequence, "QQRPDLILV" ?
Response given: ≤ 5.30

* * *

Molecular target: HLA-B*46:01
Test: IEDB peptide-MHC binding, purified MHC/competitive/fluorescence; filed as Kd, often an IC50 or EC50 that approximates it; bounds were set here for any values at or beyond the usual limits of such assays
Conditions: source organism: Orthohantavirus khabarovskense
reported metric: Kd

Challenge: What Kd value was documented for this sequence, "FSLPSSSSY" ?
Response given: 70.7 nM

* * *

Target: HLA-A*29:02
Assay: IEDB peptide-MHC binding, purified MHC/competitive/radioactivity; bounds were set here for any values at or beyond the usual limits of such assays
Conditions: source organism: Human papillomavirus 16
reported metric: IC50 (nM)
Numbers only, in nM.

Challenge: What IC50 value was documented for this sequence, "IFVYIPLFL" ?
Response given: 444

* * *

Molecular target: HLA-B*51:01
Assay: IEDB peptide-MHC binding, purified MHC/direct/fluorescence; filed as Kd, often an IC50 or EC50 that approximates it; bounds were set here for any values at or beyond the usual limits of such assays
Settings: source organism: Salmonella enterica subsp. enterica serovar Typhimurium str. LT2
reported metric: Kd

Challenge: What Kd value was documented for this sequence, "FKYDSTKPL" ?
Response given: ≥ 20 µM

* * *

Target: HLA-A*11:01
Test: IEDB peptide-MHC binding, purified MHC/direct/fluorescence; filed as Kd, often an IC50 or EC50 that approximates it; bounds were set here for any values at or beyond the usual limits of such assays
Settings: source organism: Brucella abortus 2308
pKd: −log10 of the molar value.
reported metric: pKd

Challenge: What pKd value was documented for this sequence, "TPPVDRMAV" ?
Response given: ≤ 4.70

* * *

Target: HLA-A*03:01
Assay: IEDB peptide-MHC binding, purified MHC/competitive/radioactivity; filed as Kd, often an IC50 or EC50 that approximates it; bounds were set here for any values at or beyond the usual limits of such assays
Details: source organism: Dengue virus 2 Peru/IQT2913/1996
reported metric: pKd
Give bare numbers, as −log10 of the molar value.

Challenge: What pKd value was documented for this sequence, "MLINRFTMR" ?
Response given: 7.24

* * *

Molecular target: HLA-A*68:01
Assay: IEDB peptide-MHC binding, purified MHC/competitive/radioactivity; filed as Kd, often an IC50 or EC50 that approximates it; bounds were set here for any values at or beyond the usual limits of such assays
Details: source organism: Vaccinia virus WR
reported metric: pKd
Answers are plain numbers, as −log10 of the molar value.

Observe how each entry below is paired with its result.
# sequence entry, pKd
records = [
    ("VSLKKTNDK", 4.71),
    ("VIGLSGDSER", 6.74),
    ("RLSILSKDK", 5.97),
    ("AARILSEKRK", 5.09),
    ("NSQIFNIISY", 6.36),
    ("DVQRTRCKY", 5.04),
    ("EIIFLKLFK", 9.16),
    ("KSVTKSSSWK", 7.10),
]

I need pKd for every entry listed below, if you could help.
1. FIDRGSIKIK
2. NVTSMEELAR
3. GSWATSSFR
4. NLKAMLYIIR
5. DSIKDVIHDY
6. STCSAVTDR
7. MFEQYFIYTY
8. LSLSNLDFR

Response given:
[6.07, 8.55, 7.27, 6.68, 4.99, 7.26, 5.09, 6.52]

I need pKd for every entry listed below, if you could help.
1. VAALDGTFQR
2. LLIWAYLSKK
3. NTIDKSSPLY
4. SMLTNAISSR

Response given:
1: 7.40; 2: 6.44; 3: 7.07; 4: 6.66

I need pKd for every entry listed below, if you could help.
1. EIIFLKLFKK
2. VVDTFISYNR
3. SSKGNCAIK
4. SMTIREFPR
5. LSKRERQLAK
6. LSARNKLFKR
7. TFKIDAVRYY

Response given:
[8.27, 7.09, 5.46, 6.70, 5.23, 6.91, 5.84]

I need pKd for every entry listed below, if you could help.
1. FALKKLIIDR
2. SSSIDVDKR
3. DADPPIPYSR

Response given:
6.26
6.84
6.29

I need pKd for every entry listed below, if you could help.
1. VFTDISMSLY
2. DARYCSEFIR
3. DICSKHMDAR

Response given:
5.64
6.60
6.22

I need pKd for every entry listed below, if you could help.
1. STDNAVYQCR
2. QTVDFTDCR
3. SVLCVKKFYK

Response given:
[7.09, 8.80, 9.00]

I need pKd for every entry listed below, if you could help.
1. QMDSMEALEY
2. IFMRDWNSK
3. SMGFKVTTRR
4. RTMPNESRVK
5. DMFLTSVINR

Response given:
4.93
5.62
6.67
5.95
7.99

Hello, the source for this data is the Immune Epitope Database (IEDB), in case you need it.
